Overview of recorded Assay (I) Glucagon [EC50] for various binders
- system: glucagon receptor (human, UniProt P47871 26-477)
- Sequence (P47871 26-477): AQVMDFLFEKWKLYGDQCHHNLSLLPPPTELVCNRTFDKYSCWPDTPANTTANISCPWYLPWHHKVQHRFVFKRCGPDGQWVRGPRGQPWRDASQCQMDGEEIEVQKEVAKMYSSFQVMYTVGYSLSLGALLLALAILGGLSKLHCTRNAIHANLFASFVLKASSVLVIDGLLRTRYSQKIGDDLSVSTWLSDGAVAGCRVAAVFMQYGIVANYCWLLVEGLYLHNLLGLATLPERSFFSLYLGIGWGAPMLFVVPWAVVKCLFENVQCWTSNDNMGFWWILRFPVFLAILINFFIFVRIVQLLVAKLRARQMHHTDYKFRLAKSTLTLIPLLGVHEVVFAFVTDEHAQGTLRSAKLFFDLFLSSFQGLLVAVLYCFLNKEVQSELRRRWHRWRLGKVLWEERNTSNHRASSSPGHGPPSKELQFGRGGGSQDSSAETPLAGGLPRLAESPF
- procedure.details: cell-based or functional assay
*1 amine or outer side, *2 acyl side, *3 side chain or, on linkers, in order; H or OH if unused. Where no end group is shown, it is not given here. Side-chain parts run from the residue outwards. The star is where a group is joined. C18 diacid = O=C(O)CCCCCCCCCCCCCCCCC(=O)*; C16 diacid = O=C(O)CCCCCCCCCCCCCCC(=O)*; γGlu = O=C(O)[C@H](CCC(=O)[*:2])N[*:1]; AEEA = NCCOCCOCC(=O)O
property.measured: Assay (I) Glucagon [EC50] (nM)

HSQGTFTSDYSKYLDIRRAQDFVK([γGlu-γGlu-γGlu-γGlu-C18 diacid])WLLST ... 0.189
HSQGTFTSDYSRYLDVRRAQDFVK([γGlu-γGlu-AEEA-AEEA-γGlu-C16 diacid])WLLST ... 0.026
HSQGTFTSDYSRYLDRRRAQDFVK([γGlu-γGlu-AEEA-AEEA-γGlu-C18 diacid])WLLST ... 0.355
HSQGTFTSDYSKYLESRRAQDFVK([γGlu-γGlu-AEEA-AEEA-γGlu-C18 diacid])WLLQT ... 0.517
HSQGTFTSDYSRYLDERRAQDFVK([γGlu-γGlu-AEEA-AEEA-γGlu-C18 diacid])WLLST ... 0.153
